molecules and their reported IC (TGI)
System: HT-29 colon cancer cell line
EXPERIMENT NOTES: NCI five-dose testing
Format: cell-based
MEASUREMENT CONTEXT: Homo sapiens, HT-29; read-out: TGI (total growth inhibition concentration)
Value expressed in µM; do not type the unit.

COc1cccc(-c2nn(-c3ccccc3)cc2-c2ccnc(NCCNS(=O)(=O)c3ccc(C(F)(F)F)cc3)c2)c1 ... 5.7
O=S(=O)(NCCCNc1cc(-c2cn(-c3ccccc3)nc2-c2cccc(O)c2)ccn1)c1ccc(F)cc1 ... 6.4
COc1cccc(-c2nn(-c3ccccc3)cc2-c2ccnc(NCCCNS(=O)(=O)c3cccc(F)c3)c2)c1 ... 18.8

Let us examine a further case.
Task: Return reported IC (TGI); argument: `O=S(=O)(NCCCNc1cc(-c2cn(-c3ccccc3)nc2-c2cccc(O)c2)ccn1)c1ccc(C(F)(F)F)cc1`
Output: 3.1

---

System: U251 CNS cancer cell line
EXPERIMENT NOTES: NCI five-dose testing
Format: cell-based
MEASUREMENT CONTEXT: U251; read-out: IC50
TEST READOUT: IC50 (nM)
Value expressed in nM; do not type the unit.

For orientation, consider the following solved cases.
O=S(=O)(NCCNc1cc(-c2cn(-c3ccccc3)nc2-c2cccc(O)c2)ccn1)c1ccc(F)cc1 [Compound 1m] ... 2620
O=S(=O)(NCCNc1cc(-c2cn(-c3ccccc3)nc2-c2cccc(O)c2)ccn1)c1ccc(Br)cc1 [Compound 1k] ... 2210
O=S(=O)(NCCNc1cc(-c2cn(-c3ccccc3)nc2-c2cccc(O)c2)ccn1)c1ccc(Cl)cc1 [Compound 1l] ... 3210
O=S(=O)(NCCCNc1cc(-c2cn(-c3ccccc3)nc2-c2cccc(O)c2)ccn1)c1ccc(Cl)cc1 [Compound 2l] ... 1350

Let us examine a further case.
Task: Can you look up IC50 on U251 CNS cancer cell line for COc1cccc(-c2nn(-c3ccccc3)cc2-c2ccnc(NCCNS(=O)(=O)c3ccc(Cl)cc3)c2)c1 [Compound 1c] ?
Output: 5890

---

Test system: prostate cancer cell lines
EXPERIMENT NOTES: NCI five-dose testing, subpanel mean
Format: cell-based
MEASUREMENT CONTEXT: subpanel VIII: prostate cancer
Mark each entry rule met if its IC50 sits below 3 µM, and rule not met for all others.

As a guide, the following entries are already answered.
COc1cccc(-c2nn(-c3ccccc3)cc2-c2ccnc(NCCCNS(=O)(=O)c3cccc(F)c3)c2)c1 [Compound 2h] ... rule not met
O=S(=O)(NCCNc1cc(-c2cn(-c3ccccc3)nc2-c2cccc(O)c2)ccn1)c1ccc(C(F)(F)F)cc1 [Compound 1o] ... rule not met
O=S(=O)(NCCCNc1cc(-c2cn(-c3ccccc3)nc2-c2cccc(O)c2)ccn1)c1ccc(Br)cc1 [Compound 2k] ... rule met
COc1cccc(-c2nn(-c3ccccc3)cc2-c2ccnc(NCCNS(=O)(=O)c3ccc(Cl)cc3)c2)c1 [Compound 1c] ... rule not met
O=S(=O)(NCCCNc1cc(-c2cn(-c3ccccc3)nc2-c2cccc(O)c2)ccn1)c1ccc(F)cc1 [Compound 2m] ... rule not met

Note: attention shifts to another entry.
Task: Lab log: compare recorded IC50 with 3 µM; is it strictly lower for O=S(=O)(NCCCNc1cc(-c2cn(-c3ccccc3)nc2-c2cccc(O)c2)ccn1)c1cccc2ccccc12 [Compound 2q] ?
Output: rule not met
